Data origin: ChEMBL document CHEMBL6120978

MEASUREMENT_NOTES: Selectivity index, ratio of IC50 for cytotoxicity against human HaCaT cells to IC50 for cytotoxicity against human MDA-MB-231 cells
Type: toxicity, cell-based
CONDITION_NOTES: HaCaT cells versus MDA-MB-231 cells, read-out: Ratio IC50
QUANTITY_KIND: selectivity ratio

MOLECULE_SMILES | selectivity ratio
CC[C@@H](C(=O)[C@@H](C)[C@@H](O)[C@H](C)[C@@H]1O[C@@H]([C@@H](CC)C(=O)OCCCC[P+](c2ccc(OC)cc2)(c2ccc(OC)cc2)c2ccc(OC)cc2)CC[C@@H]1C)[C@H]1O[C@]2(C=C[C@@H](O)[C@]3(CC[C@@](C)([C@H]4CC[C@](O)(CC)[C@H](C)O4)O3)O2)[C@H](C)C[C@@H]1C.[Br-] | 0.8
CC[C@@H](C(=O)[C@@H](C)[C@@H](O)[C@H](C)[C@@H]1O[C@@H]([C@@H](CC)C(=O)OCCCC[P+](c2ccccc2)(c2ccccc2)c2ccc(N(C)C)cc2)CC[C@@H]1C)[C@H]1O[C@]2(C=C[C@@H](O)[C@]3(CC[C@@](C)([C@H]4CC[C@](O)(CC)[C@H](C)O4)O3)O2)[C@H](C)C[C@@H]1C.[Br-] | 1.6
CC[C@@H](C(=O)[C@@H](C)[C@@H](O)[C@H](C)[C@@H]1O[C@@H]([C@@H](CC)C(=O)OCCCCCC[P+](c2ccc(OC)cc2)(c2ccc(OC)cc2)c2ccc(OC)cc2)CC[C@@H]1C)[C@H]1O[C@]2(C=C[C@@H](O)[C@]3(CC[C@@](C)([C@H]4CC[C@](O)(CC)[C@H](C)O4)O3)O2)[C@H](C)C[C@@H]1C.[Br-] | 1.1

Below: the item to evaluate.
Q: So what does the record say about selectivity ratio for CC[C@@H](C(=O)[C@@H](C)[C@@H](O)[C@H](C)[C@@H]1O[C@@H]([C@@H](CC)C(=O)OCCCC[P+](c2ccccc2OC)(c2ccccc2OC)c2ccccc2OC)CC[C@@H]1C)[C@H]1O[C@]2(C=C[C@@H](O)[C@]3(CC[C@@](C)([C@H]4CC[C@](O)(CC)[C@H](C)O4)O3)O2)[C@H](C)C[C@@H]1C.[Br-] ?
Result: 1.3
